tested on: Hs-578T; assay: NCI tumour cell line growth inhibition, 48 h
Activity calls are given as the source filed them. No stated cut-off is given here; in the data, active = GI50 up to about 1.1 µM and inactive = higher.
Hello, when you answer, please use one of the following outcomes: active, inactive

These solved cases illustrate the format of a correct answer.
[
  {
    "compound": "Cc1ccc(S(=O)(=O)Nc2nnc(S(N)(=O)=O)s2)cc1",
    "assigned.class": "inactive"
  },
  {
    "compound": "CN1B(c2ccccc2)N(C)C(=O)N(C)C1=O",
    "assigned.class": "inactive"
  },
  {
    "compound": "CCOc1ncn(-c2ccc(NC(=S)Nc3cnccn3)cc2)n1",
    "assigned.class": "inactive"
  },
  {
    "compound": "CCOC(=O)c1cn(CC)c2ccc3ccsc3c2c1=O",
    "assigned.class": "inactive"
  },
  {
    "compound": "O=C1c2cc(CCl)sc2C(=O)c2ccsc21",
    "assigned.class": "active"
  },
  {
    "compound": "O/N=N\\c1nc(-c2cccnc2)nc2ccccc12",
    "assigned.class": "inactive"
  }
]

Qu. Which outcome did this test record for the compound COc1ccc(C(=O)/C=C2\c3ccccc3C(=O)N2C)cc1 ?
Ans. inactive

Qu. Given c1ccc2c(c1)Sc1ccccc1N2CCCN1c2ccccc2Sc2ccccc21 , state the outcome it received in this test.
Ans. inactive

Qu. How did this test come out for CC(=O)[C@@]1(O)CC[C@H]2[C@@H]3C[C@H](C)C4=CC(=O)CC[C@]4(C)[C@H]3[C@@H](O)C[C@@]21C ?
Ans. inactive

Qu. Record request — test call for COc1ccc(CN2C(=O)C(=O)N(C)C2=O)c2ccccc12
Ans. inactive

Qu. Can you look up the reported call for COC(=O)Cc1c2n(c3ccccc13)C(=O)N1c3ccccc3C(CC(=O)OC)C21 (configuration not stated) for me?
Ans. inactive

Qu. // param item: CC(=O)c1c(O)nnc(-c2ccc(Cl)cc2)c1-c1ccc(Cl)cc1 ; yields the recorded call
Ans. inactive

Qu. # outcome recorded in this test, key = CC1=C/C(=N/N2C(=O)/C(=C/c3ccc(Cl)cc3)N=C2c2ccccc2)CC(C)(C)C1
Ans. inactive

Qu. Check the results log: what was the call for CO/N=C(/C(=O)OC)c1ccccc1COc1cccc(C(F)(F)F)c1 ?
Ans. inactive

Qu. Recorded test call requested for CC(=O)c1ccc(NCc2cc(O)ccc2O)cc1
Ans. inactive

Qu. I'd appreciate the recorded outcome for CC(=O)c1cccc(NC(=O)C(=O)c2c(O)oc3ccccc3c2=O)c1 from this test.
Ans. inactive

Qu. Returns: the outcome recorded for O=C1N/C(=N/N=C/C(O)C(O)C(O)C(O)CO)N/C1=C\c1c[nH]c2ccccc12 (configuration not stated) in this assay.
Ans. inactive

Qu. Record lookup: outcome of this test for NC(=O)c1cc2cc(Cl)cc(Cl)c2o/c1=N\c1ccc(F)cc1 ?
Ans. inactive

* * *

system: KM12; test: NCI tumour cell line growth inhibition, 48 h
Calls of active or inactive are those of the source. No stated cut-off is given here; in the data, active = GI50 up to about 1.1 µM and inactive = higher.
reported.endpoint: GI50

[
  {
    "molecule": "CC(C)CC(NC(=O)C(Cc1ccccc1)NC(=O)[C@H]1CC[C@H](NC(=O)C(Cc2ccc(OC(C)(C)C)cc2)NC(=O)OC(C)(C)C)C1)C(N)=O (some centres undefined)",
    "measurement.target": "KM12",
    "GI50": "20.2 µM (inactive)"
  }
]

Qu. Request the reported GI50 associated with CC(C)(CN1CCOCC1)C(=O)/C=C/c1ccc(/C=C/C(=O)C(C)(C)CN2CCOCC2)cc1
Ans. 1.54 µM (inactive)

Qu. Return reported GI50; argument: COc1cc(C2C(Cl)C(=O)N2c2c(C)n(C)n(-c3ccccc3)c2=O)ccc1O (centres undefined)
Ans. 17.7 µM (inactive)

Qu. Can you look up the measured GI50 of CCOC(OCC)C(CCc1ccccc1)c1c(N)nc(N)[nH]c1=O (centres undefined) for me?
Ans. 66.4 µM (inactive)
